test: yeast display, Sf9 membrane polyspecificity reagent, FACS + sequencing; frameworks hold sequencing errors
Recorded Endpoint: polyreactivity (PSR sort gate)

{"columns": ["Seq Text", "Recorded Endpoint", "Data Value"],
 "data": [
  ["QFQLEESGGGLVQAGGSLRLSCAASGSTFGDYAMGWYRQAPGKERVLVAAINFSDGSTYYADSVKGRFTISRDNAKNTVYLQMNSLKPEDSAVYYCAKQGYLVWSGWRWYDYWGQGTQGTVSS", "polyreactivity (PSR sort gate)", "low polyreactivity"],
  ["QVQLVESGGGLDQAGGSLRLSCAASGITFDYYAIGWYRQAPGKERELVAAISRAGSTNYADSVKGRFTISRDNAKNTVYLQMNSLKPEDTAVYYCNNGYHSWSRLSQFGWSYDYWGQGTQVTVSS", "polyreactivity (PSR sort gate)", "high polyreactivity"],
  ["QVQLVESGGGLVQAGGSLRLSCAASGRNFRKYAMGWYRQAPGKERELVAAITSSGGSTYYADSVKGRFTISRDNAKNTVYLQMNSLKPVDTAVYYCAAQKRGSPGYRRDYWGQGTQVTVSS", "polyreactivity (PSR sort gate)", "high polyreactivity"],
  ["QVQLLESGGGLVQAGGSLRLSCAASGSIFRYNDMGWYRKAPGKETELVATITSGTNTYYADSVKGRFTISRDNAQNTVYLQMNRLKPEDTAVYYCAKSYNAWDGRTFEEMNYWGQGTQVTVSS", "polyreactivity (PSR sort gate)", "low polyreactivity"],
  ["QVQLVESGGGLVQAGGSLRLICAASGITTRTYAMGWYRQAPGKDRELVAAISDSGDRTYYADSVKGRFTISRDNAKNTVYLQMNRLKPEDTAVYYCAVDAPGPRCEFWGQGTKVTVSS", "polyreactivity (PSR sort gate)", "low polyreactivity"]
]}

###

test: yeast display, Sf9 membrane polyspecificity reagent, FACS + sequencing; frameworks hold sequencing errors

{"columns": ["Seq Text", "polyreactivity (PSR sort gate)"],
 "data": [
  ["QVQLVESGGGLVHAGGSLRLSCAASGFTFLYNSMGWYRQAPGKERELVASINSGGSTNYADSVKGRFTISRDNAKNTVYLQMNSLKPEDTAVYYCNAKRHVRKGDYWGQGTQVTVSS", "low polyreactivity"],
  ["QDQLVESGGGLVQAGGSLRLSCAASGFIFDDNAMGWSRQAPGKERELVAAITSGGGSTYYAVSVKGRFTISRDNAKNTVYLQMNSLKPEDTAVYYCNAVPSQHDEFDYWGQGTQVTVSS", "low polyreactivity"],
  ["QVQLVESGGGLVQAGGSLRLSCAASGSIIVGYAMGWYRQAPGKERELVAAISWSGGRTYYADSVKGRFTISRDNAKNTVYLQMNSLKPEDTAVYYCATVTKGSLRYNYNYWGQGTQVTVSS", "high polyreactivity"],
  ["QVLLQESGGGLVQAGGSLRLSCAASGTISTDIRMGWYRLAPGKEPEFVASIDGCSTTYYADSVKVRFTISRDNAKNTVYLQMNSVIPEDSAMYYCAAREATEFYLYYWGQGTQVTVSS", "low polyreactivity"],
  ["QVQLVESGGGLVQAGGSLRLSCAASGSIFYFYAMRWYRQAPGKERELVAAITDGGASTRYADSVKGRFTISRDYAKNTVYLHMNSLKPEDTAVYYCNARKYWKYGSYQYYWGQGTQVTVSW", "high polyreactivity"],
  ["QVQLVESGGGLVQSGGSLRLSCAASGITFFEYAMGWYRQAPGKERELVAVITSGGSTNYADSVKGRFTISRDNAKNTVYLQMNSLKPEDTAVYYCNALVVKYRWWYDYYYWGQGTQVTVSS", "low polyreactivity"],
  ["QVQLVESAGGLVQAGGSLRLSCAASGYTFPYYTMGWYRQAPGKERELVATITRRGDSTYYADSVKGRFTISRDNAKNTVYLQMNSLKPEDTAVYYCNTASYGRHQFRKSSKMDYWGQGTQVTVSS", "high polyreactivity"],
  ["QVQLVESGGGLVQAGGNLRLSCAASGFIFTRNAMGWYRQAPGKERELVAAISTSGDRTYYADSVKGRFTISRDNAKNTVYLQMNSLKPEDTAVYYCAVVRPRYVVRYDYWGQGTQVNVSS", "high polyreactivity"],
  ["QVQLVESGGCLVQAGGSLRLSCAASGITFGRNTMGWSRQAPGKERELVAAIDSGGNTYADSVKGRFTISRDNAKNTVYLQMNSLKPEDTAVYYCAVDGGEFSSYGYWVQGTQVTVSS", "low polyreactivity"],
  ["QVQLVESGGGLVQAGGSLRLSCAASGITFNVYAMAWYRQAPGKERELVATITGSGGSTYYADSVKGRFTISRDNAKNTVYLQMNSQKPEDTAVYYCNAYYYFWGQGSQVTVSS", "low polyreactivity"],
  ["QVQIVESGGCLVQAGGSLRLICAASGNTFRWYDMGWYIQAPRKEREFVADITVRGGSTYYADSVKGRFTISRDNAKNTVYLQMNCLKPEDTAVYYCAVDFRRYPGFDYWGQGTQVTVSS", "low polyreactivity"],
  ["QVQLVESGGGLVQAGGSLRLSCAASGRIFNANAMGWYRPAPGKESELVAAISSSGGSTYYSDSVKGRFTISRDNAKNTVYLHMNSLKPEDTAVYYCKDEWGWRYSSDFDYWGQGTQVTVSS", "low polyreactivity"],
  ["QVQLVESGGGLVQAGGSLRLSCAASGITLNRNAMGWYRQAPGKERELVARISRRGGTTYYADSVKGRFTISRDNAKNTVYLQMNSLKPEDTAVYYCNAGPYGGNPFDYWGQGTQVTVSS", "high polyreactivity"],
  ["QVQLVESGGGLVQAGGSLRLSCAASGFISVRNAMGWYRQAPGKERELVAAISSGDTTDYADSVKGRFTISRDNAKNTVYLQMISLKPEDTAVYYCAAVYYGRYYYWGQGTQVTVSS", "low polyreactivity"],
  ["QVQLVESGGGLVQAGGSLRLSCAASGFIFGYYAMGWYRQAPGKERELVAAITTSAASTYYADSVKGRFTISRDNAKNTVYLQMNSLKPEDTAVYYCNAVLYKVSISEYDYWGQGTQVTVSS", "high polyreactivity"],
  ["QVQLQESGGGLVQAGGVLRLSCAASGTISGPHVMGWYRQAPGKEREFVAAINDGANTYYADNVKGRFTISRDNAKNTVYLQMNILKPEDTAVYYCAAVFYGDIGHEYWGQGTQVTVSC", "low polyreactivity"],
  ["QVQLVESGGGLVQAGGSLRLSCAASGRTFLIYAMGWYRQAPGKERELVAAITSGGRTKYADSVKGRFTISRDNAKYTVYLQMNSLKPEDTAVYYCAARTGVYRYSRKFDYWGQGTQVTVSS", "high polyreactivity"],
  ["QVQLVESGGGLVQAGGSLRLSCAASGSIFDNAMGWYRQAPGKERELVASIDQSGGSTYYADSVMGRFTISRDNAKNTVYLQMNSLKPEDTAVYYCAADSFTGYPYEMDYWGQGTQVTVSS", "low polyreactivity"],
  ["QVQLVESGGGLVQAGGSLRLSCAPSGSIFYINAMAWYRQAPGKERELVAAITSDGSTYYADSVKGRFTISRDNAKNTVYLQMNSLKPVDTAVYYFAADMTSDQYLYYWYWFYSWGQGTQVTVSS", "low polyreactivity"],
  ["QVQLVESGGGLVQAGGSLRLSCAASGNTFPVYAMGWYRQASGKERELVATITSGGSTNYADSVKGRFTISRDNAKNTVYLQMNSLKPEDTAVYDCARRAVYAKRRYDYWGQGTQVTVSS", "low polyreactivity"],
  ["QVQLVESGGGLVQAGGSLRLSCAASGRIFVDNDMGWYRQAPGKERELVAAISGNGGNTNYADSVKGRFTISRDNAKNTVYLQMNSLKPEDTAVYYCAATYPVGHVYRYDYWGQGTQVTVSS", "low polyreactivity"]
]}
